- subject_of_test: T877A-AR (Homo sapiens, UniProt P10275, T878A)
- Sequence (P10275 whole entry T878A): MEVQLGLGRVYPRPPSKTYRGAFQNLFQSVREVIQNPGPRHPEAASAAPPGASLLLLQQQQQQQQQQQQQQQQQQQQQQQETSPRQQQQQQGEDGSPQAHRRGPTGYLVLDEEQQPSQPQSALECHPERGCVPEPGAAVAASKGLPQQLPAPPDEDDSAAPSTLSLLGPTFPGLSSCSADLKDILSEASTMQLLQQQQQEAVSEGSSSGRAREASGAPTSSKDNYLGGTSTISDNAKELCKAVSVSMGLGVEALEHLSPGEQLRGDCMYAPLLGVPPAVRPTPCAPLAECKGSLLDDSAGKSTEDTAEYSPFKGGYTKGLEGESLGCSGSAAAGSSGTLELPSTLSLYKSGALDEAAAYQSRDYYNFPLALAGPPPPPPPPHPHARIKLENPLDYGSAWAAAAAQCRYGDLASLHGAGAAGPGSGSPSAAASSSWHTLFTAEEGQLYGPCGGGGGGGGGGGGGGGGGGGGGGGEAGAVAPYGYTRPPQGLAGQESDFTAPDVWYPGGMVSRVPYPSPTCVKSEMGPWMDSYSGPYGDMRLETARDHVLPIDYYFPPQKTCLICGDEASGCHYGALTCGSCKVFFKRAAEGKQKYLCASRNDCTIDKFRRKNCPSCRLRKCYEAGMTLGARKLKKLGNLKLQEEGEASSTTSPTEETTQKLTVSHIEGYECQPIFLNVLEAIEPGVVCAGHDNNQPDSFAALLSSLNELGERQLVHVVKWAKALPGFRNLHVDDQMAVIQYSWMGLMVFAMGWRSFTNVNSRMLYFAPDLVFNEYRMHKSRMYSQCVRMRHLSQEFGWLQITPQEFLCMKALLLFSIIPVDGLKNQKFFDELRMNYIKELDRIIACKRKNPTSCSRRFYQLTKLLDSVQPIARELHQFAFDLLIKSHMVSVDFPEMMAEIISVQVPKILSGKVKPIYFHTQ
- assay_protocol: cell-based

input_smiles	unit_info	EC50
C[C@]12CC[C@H](O)CC1=CC[C@@H]1[C@@H]2CC[C@]2(C)C(c3cccnc3)=CC[C@@H]12	µM	7.9

###

- System: wild-type (WT)-AR
- assay_protocol: PSA-ARE3-luc luciferase reporter assay in transfected PC-3 cells, WT-AR
- Assay type: cell-based, human
- condition_parameters: compared to R1881
property_measured: activation of WT-AR

compound	assay_value
C[C@]12C=CC(=O)C=C1CC[C@@H]1[C@@H]2C(=O)C[C@@]2(C)[C@H]1CC[C@]2(O)C(=O)CO [prednisone]	do not activate
C[C@@H]1C[C@H]2[C@@H]3CCC4=CC(=O)C=C[C@]4(C)[C@@]3(F)[C@@H](O)C[C@]2(C)[C@@]1(O)C(=O)CO [dexamethasone]	do not activate

###

- subject_of_test: LNCaP (T877A-AR) (Homo sapiens, UniProt P10275, T878A)
- Sequence (P10275 whole entry T878A): as above
- assay_protocol: cell-based
property_measured: EC50 (nM)

input_smiles	property_measured	assay_value
C[C@]12CC[C@H](O)CC1=CC[C@@H]1[C@@H]2CC[C@]2(C)C(c3cccnc3)=CC[C@@H]12	EC50	2600
